# measurement-target: Cannabinoid receptor 1 (Homo sapiens, UniProt P21554)
# Sequence (P21554 whole entry): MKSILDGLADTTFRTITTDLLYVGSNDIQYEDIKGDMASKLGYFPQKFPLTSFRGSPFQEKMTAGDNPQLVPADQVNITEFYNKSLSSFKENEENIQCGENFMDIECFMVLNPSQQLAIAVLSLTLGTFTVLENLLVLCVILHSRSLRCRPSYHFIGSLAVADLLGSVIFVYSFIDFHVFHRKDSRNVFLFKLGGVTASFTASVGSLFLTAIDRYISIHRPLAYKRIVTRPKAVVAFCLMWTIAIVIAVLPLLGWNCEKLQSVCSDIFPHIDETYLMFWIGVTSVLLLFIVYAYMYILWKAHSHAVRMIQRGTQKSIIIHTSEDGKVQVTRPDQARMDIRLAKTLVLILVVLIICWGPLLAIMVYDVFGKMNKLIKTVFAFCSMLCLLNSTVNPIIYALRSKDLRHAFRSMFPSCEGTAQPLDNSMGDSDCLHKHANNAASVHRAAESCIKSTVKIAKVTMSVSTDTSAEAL
# protocol-details: Agonist activity at human CB1 receptor after 4 hrs by luciferase reporter gene assay relative to control
# Assay type: functional
readout: Efficacy (%)
Unit % implied. Number only.

Task item: Given the compound O=C(Nc1sc2c(c1C(=O)N1CC(F)(F)C1)CCC(F)(F)C2)c1ccccc1OC(F)(F)F , what is its reported Efficacy?
Reply: 93

Task item: Given the compound CC(C)(C)CC(=O)Nc1sc2c(c1C(=O)NCC1CC1)C(C)(C)CC2 , what is its reported Efficacy?
Reply: 96

Task item: Given the compound COCCNC(=O)c1c(NC(=O)CC(C)(C)C)sc2c1C(C)(C)CC2 , what is its reported Efficacy?
Reply: 98

Task item: Given the compound O=C(Nc1sc2c(c1C(=O)N1CCCCC1)CCOC2)c1c(F)cccc1C(F)(F)F , what is its reported Efficacy?
Reply: 94

Task item: Given the compound COC1CN(C(=O)c2c(NC(=O)c3ccccc3C(F)(F)F)sc3c2CCOC3)C1 , what is its reported Efficacy?
Reply: 53

Task item: Given the compound O=C(Nc1sc2c(c1C(=O)N1CCC(F)(F)CC1)CCOC2)c1c(F)cccc1C(F)(F)F , what is its reported Efficacy?
Reply: 94

Task item: Given the compound O=C(Nc1sc2c(c1C(=O)N1CCOCC1)CCOC2)c1ccccc1Cl , what is its reported Efficacy?
Reply: 85

Task item: Given the compound COCCNC(=O)c1c(NC(=O)CC(C)(C)C)sc2c1CCCC2 , what is its reported Efficacy?
Reply: 90

Task item: Given the compound CC(C)(C)CC(=O)Nc1sc2c(c1C(=O)N1CC(F)(F)C1)CCCC2 , what is its reported Efficacy?
Reply: 91

Task item: Given the compound COCCNC(=O)c1c(NC(=O)C2CCCC2)sc2c1CCCC2 , what is its reported Efficacy?
Reply: 61

Task item: Given the compound O=C(Nc1sc2c(c1C(=O)N1CC(F)(F)C1)CCOC2)c1ccccc1OC(F)(F)F , what is its reported Efficacy?
Reply: 104

Task item: Given the compound O=C(Nc1sc2c(c1C(=O)NCC1CC1)CCOC2)c1ccccc1OC(F)(F)F , what is its reported Efficacy?
Reply: 88
